Each recorded value in this set is attributed to patent US6737383B1.

test system: pigweed; test: Test B pre/postemergence pigweed; format: in vivo, Amaranthus retroflexus; details: Preemergence, Rate 500 g/ha; scale 0 to 10, 0 is no effect, 10 is complete control

# compound, Redroot pigweed plant response rating
data = [
    ("CCN(C(=O)n1oc(=O)n(C2CCCCCC2)c1=O)C1CCCCC1", 0),
    ("CC1CC1Cn1c(=O)on(C(=O)N(c2ccc(F)cc2)C(C)C)c1=O (centres unmarked)", 10),
    ("CC(C)N(C(=O)n1oc(=O)n(CCC#N)c1=O)c1ccccc1", 10),
    ("CC[Si](C)(C)Cn1c(=O)on(C(=O)N(c2ccc(F)cc2)C(C)C)c1=O", 7),
    ("CC(C)N(C(=O)n1oc(=O)n(C(CF)CF)c1=O)c1ccccc1", 10),
]

---

tested on: corn; assay: Test B pre/postemergence corn; assay type: in vivo, Zea mays; settings: Preemergence, Rate 125 g/ha; scale of 0 to 10 where 0 is no effect and 10 is complete control

# compound, Plant response rating, Corn
measured = [
    ("CC[Si](C)(C)Cn1c(=O)on(C(=O)N(c2ccc(F)cc2)C(C)C)c1=O", 0),
    ("CC(C)N(C(=O)n1oc(=O)n(C(C)C2CC2)c1=O)c1ccccc1 (centres unmarked)", 6),
    ("CC(C)N(C(=O)n1oc(=O)n(CCCCl)c1=O)c1ccccc1", 3),
    ("CC(C)N(C(=O)n1oc(=O)n(CCCC#N)c1=O)c1ccc(F)cc1F", 3),
    ("CC(C)N(C(=O)n1oc(=O)n(CCC(F)(F)F)c1=O)c1ccc(F)cc1", 0),
    ("CCOP(=O)(Cn1c(=O)on(C(=O)N(c2ccc(F)cc2F)C(C)C)c1=O)OCC", 2),
    ("CC(C)N(C(=O)n1oc(=O)n(CCC#N)c1=O)c1ccccc1", 0),
    ("CC(C)N(C(=O)n1oc(=O)n(C(C)C2=NOCC2)c1=O)c1ccc(Cl)cc1 (racemic)", 0),
    ("CC(C)N(C(=O)n1oc(=O)n(COCC[Si](C)(C)C)c1=O)c1ccc(Cl)cc1", 0),
    ("CC(C)N(C(=O)n1oc(=O)n(C(C)C2CCC2)c1=O)c1ccc(F)cc1F (centres unmarked)", 0),
    ("C=C(C)CCn1c(=O)on(C(=O)N(c2ccccc2)C(C)C)c1=O", 0),
    ("CCOP(=O)(OCC)C(C)n1c(=O)on(C(=O)N(c2ccccc2)C(C)C)c1=O (centres unmarked)", 0),
    ("CC(C)N(C(=O)n1oc(=O)n(CC(F)F)c1=O)c1ccc(Cl)cc1", 0),
    ("CC1CC1Cn1c(=O)on(C(=O)N(c2ccc(F)cc2)C(C)C)c1=O (centres unmarked)", 0),
]

---

test system: crabgrass; assay: Test B pre/postemergence crabgrass; type: in vivo, Digitaria sanguinalis; settings: Preemergence, Rate 31 g/ha; visual rating, scale 0 to 10 (0 no effect, 10 complete control)

# compound, Crabgrass plant response rating
rows = [
    ("Cc1onc(-c2ccccc2)c1-n1c(=O)on(C(=O)N(c2ccc(F)cc2)C(C)C)c1=O", 0),
    ("CC(Cl)=CCn1c(=O)on(C(=O)N(c2ccc(F)cc2)C(C)C)c1=O", 0),
    ("COCC(C)N(C(=O)n1oc(=O)n(-c2ccccc2C)c1=O)c1ccc(F)cc1 (stereo not shown)", 0),
    ("C=CCn1c(=O)on(C(=O)N(c2ccc(F)cc2)C(C)C)c1=O", 5),
]

---

test system: giant foxtail; test: Test B pre/postemergence giant foxtail; type: in vivo, Setaria faberii; details: Rate 62 g/ha, Postemergence; scale of 0 to 10 where 0 is no effect and 10 is complete control
The entries below come with measured Giant foxtail plant response rating values attached.

# compound, assayed.target, Giant foxtail plant response rating
records = [
    ("C=CCn1c(=O)on(C(=O)N(c2ccc(F)cc2)C(C)C)c1=O [Compound 146]", "giant foxtail", 8),
    ("CC(C)N(C(=O)n1oc(=O)n(C2CCCC(C(F)(F)F)C2)c1=O)c1ccc(F)cc1 (stereo not shown) [Compound 184]", "giant foxtail", 0),
    ("CC(C)N(C(=O)n1oc(=O)n(C(CF)CF)c1=O)c1ccccc1 [Compound 421]", "giant foxtail", 8),
    ("CC(C)N(C(=O)n1oc(=O)n(CCC(F)(F)F)c1=O)c1ccc(F)cc1 [Compound 397]", "giant foxtail", 8),
    ("CN(C(=O)n1oc(=O)n(Cc2ccccc2)c1=O)c1ccccc1 [Compound 153]", "giant foxtail", 0),
    ("C=C[Si](C)(C)Cn1c(=O)on(C(=O)N(c2ccc(Cl)cc2)C(C)C)c1=O [Compound 425]", "giant foxtail", 6),
    ("CCN(Cc1ccncc1)C(=O)n1oc(=O)n(C(C)C)c1=O [Compound 189]", "giant foxtail", 0),
    ("CC(C)N(C(=O)n1oc(=O)n(N(C)c2ccccc2)c1=O)c1ccc(F)cc1 [Compound 177]", "giant foxtail", 0),
    ("CC(C)N(C(=O)n1oc(=O)[nH]c1=O)c1ccc(F)cc1 [Compound 164]", "giant foxtail", 0),
    ("Cc1nc(Cl)sc1C(C)n1c(=O)on(C(=O)N(c2ccc(F)cc2F)C(C)C)c1=O (stereo not shown) [Compound 405]", "giant foxtail", 0),
]

---

tested on: soybean; experiment: Test B pre/postemergence soybean; format: in vivo, Glycine max; conditions: Postemergence, Rate 125 g/ha; scale of 0 to 10 where 0 is no effect and 10 is complete control
property.label: Soybean plant response rating

# molecule, property.label, assay.result
measured = [
    ("CC(C)N(C(=O)n1oc(=O)n(C(C)c2ccccc2)c1=O)c1ccc(Cl)cc1 (centres unmarked)", "Soybean plant response rating", 3),
    ("Cc1ccc(N(C(=O)n2oc(=O)n(C(C)C)c2=O)C(C)C)cc1", "Soybean plant response rating", 3),
    ("CC(C)N(C(=O)n1oc(=O)n(Cc2nnc(Cl)s2)c1=O)c1ccc(F)cc1", "Soybean plant response rating", 1),
    ("CC(C)N(C(=O)n1oc(=O)n(C)c1=O)c1ccc(Cl)cc1", "Soybean plant response rating", 6),
    ("CC(C)N(C(=O)n1oc(=O)n(CCCC#N)c1=O)c1ccc(F)cc1F", "Soybean plant response rating", 5),
]

---

test system: pigweed; assay: Test B pre/postemergence pigweed; assay type: in vivo, Amaranthus retroflexus; settings: Preemergence, Rate 62 g/ha; scale 0 to 10 (0 no effect, 10 complete control)
property.label: Redroot pigweed plant response rating

# compound, assay.result
rows = [
    ("CCOC(=O)CC(C(=O)OCC)n1c(=O)on(C(=O)N(c2ccc(F)cc2)C(C)C)c1=O (stereo not shown) [Compound 615]", 0),
    ("CCOC(Cn1c(=O)on(C(=O)N(c2ccc(Cl)cc2)C(C)C)c1=O)OCC [Compound 633]", 0),
    ("CCOC(Cn1c(=O)on(C(=O)N(c2ccc(F)cc2F)C(C)C)c1=O)OCC [Compound 630]", 2),
    ("CN(C(=O)n1oc(=O)n(Cc2ccccc2)c1=O)c1ccccc1 [Compound 153]", 0),
]

---

system: giant foxtail; experiment: Test B pre/postemergence giant foxtail; type: in vivo, Setaria faberii; details: Rate 500 g/ha, Preemergence; scale 0 to 10 (0 no effect, 10 complete control)

# molecule, Giant foxtail plant response rating
rows = [
    ("CCOP(=O)(Cn1c(=O)on(C(=O)N(c2ccc(F)cc2F)C(C)C)c1=O)OCC [Compound 736]", 9),
    ("C#CCCn1c(=O)on(C(=O)N(c2ccc(F)cc2)C(C)C)c1=O [Compound 767]", 10),
    ("CC(C)N(C(=O)n1oc(=O)n(C(C)C2=NOCC2)c1=O)c1ccc(Cl)cc1 (racemic) [Compound 759]", 10),
    ("CC(C)N(C(=O)n1oc(=O)n(C(C)C(=S)N(C)C)c1=O)c1ccc(Cl)cc1 (stereo not shown) [Compound 733]", 9),
]

---

The entries below come with measured Bedstraw plant response rating values attached.
Tested on: bedstraw
Assay: Test B pre/postemergence bedstraw
Type: in vivo, Galium aparine
Conditions: Preemergence, Rate 250 g/ha; scale of 0 to 10 where 0 is no effect and 10 is complete control
Protocol: […] At the same time, these crop and weed species were also treated with postemergence applications of test chemicals formulated in the same manner. […] Treated plants and controls were maintained in a greenhouse for twelve to sixteen days, after which all species were compared to controls and visually evaluated. […]

# molecule, Bedstraw plant response rating
rows = [
    ("CCN(C(=O)n1oc(=O)n(N(C)C)c1=O)C1CCCCC1 [Compound 274]", 0),
    ("CC(=O)OCn1c(=O)on(C(=O)N(c2ccc(F)cc2)C(C)C)c1=O [Compound 292]", 0),
    ("CC(C)N(C(=O)n1oc(=O)n(C2CC2)c1=O)c1ccc(F)cc1F [Compound 299]", 10),
    ("CCC=CCn1c(=O)on(C(=O)N(c2ccc(F)cc2)C(C)C)c1=O [Compound 286]", 0),
    ("Cc1noc(C)c1Cn1c(=O)on(C(=O)N(c2ccc(F)cc2)C(C)C)c1=O [Compound 259]", 10),
    ("Cc1nc(Cl)sc1C(C)n1c(=O)on(C(=O)N(c2ccccc2)C(C)C)c1=O (stereo not shown) [Compound 407]", 0),
    ("CCc1cccc(CC)c1-n1c(=O)on(C(=O)N(c2ccccc2)C(C)C)c1=O [Compound 305]", 0),
]
